# Tested on: E. coli TESEC Mtb DapB
# ASSAY_METHOD_TEXT: growth (OD600 after 10 h); higher = more growth (less inhibition)
# RECORDED_CONDITIONS: arabinose induction (level): Low; compound 0.1 mM; raw OD600 reference: median of DMSO wells 0.227, cell-free background 0.041
Structures can show the parent of a compound that is named as a salt.
MEASURED_PARAMETER: growth
Field format: numeric only.

Solved entries (count: 3):
1. CC[C@]12CCCN3CCc4c(n(c5ccccc45)[C@@](O)(C(=O)OC)C1)[C@@H]32 :: 0.266
2. CO[C@@]1(NC(=O)CSCC#N)C(=O)N2C(C(=O)O)=C(CSc3nnnn3C)CS[C@@H]21 [Cefmetazole sodium salt] :: 0.0513
3. CC(=O)NC[C@H]1CN(c2ccc(N3CCOCC3)c(F)c2)C(=O)O1 :: 0.0871

Turning now to a further molecule:
Query string: Would you kindly share the measured growth for CC(C)NC[C@@H](O)COc1cccc2ccccc12 [(R)-Propranolol hydrochloride] ?
Result string: 0.212

====

Reported growth by item:
# Tested on: E. coli TESEC Mtb Alr
# ASSAY_METHOD_TEXT: growth (OD600 after 10 h); higher = more growth (less inhibition)
# RECORDED_CONDITIONS: arabinose 100000 nM; compound 0.1 mM; raw OD600 reference: median of DMSO wells 0.201, cell-free background 0.041
Structures can show the parent of a compound that is named as a salt.

Below: 3 molecules and their reported growth.
1. OCCN1CCN(CCCN2c3ccccc3C=Cc3ccccc32)CC1 [Opipramol dihydrochloride] :: 0.179
2. C=C[C@H]1CN2CC[C@H]1C[C@@H]2[C@@H](O)c1ccnc2ccc(OC)cc12 [Quinidine hydrochloride monohydrate] :: 0.181
3. O=C(CCCN1CCC(O)(c2ccc(Br)cc2)CC1)c1ccc(F)cc1 :: 0.218

// next entry
Query string: Any idea what growth was measured for CC(C)NCC(O)c1cc(O)cc(O)c1 (centres undefined) [Metaproterenol sulfate, orciprenaline sulfate] ?
Result string: 0.2

====

# Tested on: E. coli TESEC Mtb DapB
# ASSAY_METHOD_TEXT: growth (OD600 after 10 h); higher = more growth (less inhibition)
# RECORDED_CONDITIONS: arabinose induction (level): Low; compound 0.1 mM; raw OD600 reference: median of DMSO wells 0.227, cell-free background 0.041
Structures can show the parent of a compound that is named as a salt.
Parameter: growth. Scope: all listed entries.
// no unit, no text: just the number

1. N=C(N)NS(=O)(=O)c1ccc(N)cc1 :: 0.249

Query string: Which measured growth value corresponds to Cc1cccc(C)c1NC(=O)C1CCCCN1C (configuration not stated) [Mepivacaine hydrochloride] ?
Result string: 0.216

Query string: Then this compound: CCCCC1C(=O)N(c2ccccc2)N(c2ccccc2)C1=O
Result string: 0.152

Query string: Thanks! And CC1CC(OC(=O)C(O)c2ccccc2)CC(C)(C)N1C (configuration not stated) [Eucatropine hydrochloride] ?
Result string: 0.227

Query string: Check NC12CC3CC(CC(C3)C1)C2 [Adamantamine fumarate] too.
Result string: 0.214

====

# System: E. coli TESEC Mtb Alr
# ASSAY_METHOD_TEXT: growth (OD600 after 10 h); higher = more growth (less inhibition)
# RECORDED_CONDITIONS: arabinose 10000000 nM; compound 0.1 mM; raw OD600 reference: median of DMSO wells […], cell-free background 0.052
MEASURED_PARAMETER: growth
Simply state the number, no unit and no words.

Reference set, count: 2
1. CN/C(=N\CCSCc1nc[nH]c1C)NC#N :: 0.337
2. Cn1c(=O)c2c(ncn2CC2OCCO2)n(C)c1=O :: 0.334

Please turn your attention to the following entry.
Query string: Requested read-out: growth. Entry: O=C(O)c1cccnc1Nc1cccc(C(F)(F)F)c1
Result string: 0.0999

====

Below is a list of entries, each paired with its recorded growth value.
# Test system: E. coli TESEC Mtb Asd
# ASSAY_METHOD_TEXT: growth (OD600 after 10 h); higher = more growth (less inhibition)
# RECORDED_CONDITIONS: arabinose induction (level): Low; compound 0.1 mM; raw OD600 reference: median of DMSO wells 0.417, cell-free background 0.041
Counter-ions that a name gives are not always drawn.
No unit in the answer, please; the number alone is enough.

Before answering, review these 5 worked examples.
1. CCCCC1C(=O)N(c2ccccc2)N(c2ccc(O)cc2)C1=O (stereo not drawn) :: 0.384
2. Cc1ccc(S(=O)(=O)NC(=O)NN2CC3CCCC3C2)cc1 (stereo not drawn) [Gliclazide] :: 0.364
3. CCCCCCC[N+](CC)(CC)CCCCc1ccc(Cl)cc1 [Clofilium tosylate] :: 0.0474
4. Clc1cnccn1 :: 0.307
5. CC(C)OC(=O)C(C)(C)Oc1ccc(C(=O)c2ccc(Cl)cc2)cc1 [Fenofibrate] :: 0.397

Query string: Reported growth, molecule CC(C)(C)NC(=O)[C@@H]1C[C@@H]2CCCC[C@@H]2CN1C[C@@H](O)[C@H](Cc1ccccc1)NC(=O)[C@H](CC(N)=O)NC(=O)c1ccc2ccccc2n1 [Saquinavir mesylate] : ____
Result string: 0.0524

Query string: Repeat with Nc1ccc(S(=O)(=O)Nc2ccc(Cl)nn2)cc1
Result string: 0.412

Query string: Repeat with OCCOCCN1CCN(C2=Nc3ccccc3Sc3ccccc32)CC1 [Quetiapine hemifumarate]
Result string: 0.361

====

# System: E. coli TESEC Mtb Alr
# ASSAY_METHOD_TEXT: growth (OD600 after 10 h); higher = more growth (less inhibition)
# RECORDED_CONDITIONS: arabinose 100000 nM; compound 0.1 mM; raw OD600 reference: median of DMSO wells 0.201, cell-free background 0.041
Structures can show the parent of a compound that is named as a salt.
MEASURED_PARAMETER: growth
Form field (numeric): enter value without unit.

In the examples that follow, each entry is paired with its recorded growth.
1) CSc1ccc2c(c1)C(N1CCN(C)CC1)Cc1ccccc1S2 (centres undefined) [Methiothepin maleate] :: 0.0407
2) COc1ccc(CC2c3cc(OC)c(OC)cc3CC[N+]2(C)CCC(=O)OCCCCCOC(=O)CC[N+]2(C)CCc3cc(OC)c(OC)cc3C2Cc2ccc(OC)c(OC)c2)cc1OC (centres undefined) [Atracurium besylate] :: 0.174
3) COCCOC(=O)C1=C(C)NC(C)=C(C(=O)OC/C=C/c2ccccc2)C1c1cccc([N+](=O)[O-])c1 (centres undefined) :: 0.195

Query string: Given the entry NC(=O)NC1NC(=O)NC1=O (centres undefined) , report its measured growth.
Result string: 0.244

====

# Test system: E. coli TESEC Alr+ wild-type control
# ASSAY_METHOD_TEXT: growth (OD600 after 10 h); higher = more growth (less inhibition)
# RECORDED_CONDITIONS: compound 0.1 mM; raw OD600 reference: median of DMSO wells 0.241, cell-free background 0.041
Where a name gives a salt, the structure may show the parent alone.
MEASURED_PARAMETER: growth
Answer using only a numeral; do not append any unit.

Example entries and their recorded answers appear below.
1) Cc1cc2c(cc1S(N)(=O)=O)S(=O)(=O)CCC2 :: 0.252
2) CC(C)(C(=O)O)c1ccc(C(O)CCCN2CCC(C(O)(c3ccccc3)c3ccccc3)CC2)cc1 (stereo not drawn) [Fexofenadine HCl] :: 0.228
3) C#C[C@]1(OC(C)=O)CC[C@H]2[C@@H]3CCC4=CC(=NO)CC[C@@H]4[C@H]3CC[C@@]21CC (mixture of isomers) [Norgestimate] :: 0.134
4) Clc1cc(Cl)c(OCC#CI)cc1Cl :: 0.128
5) CC(CN(C)C)CN1c2ccccc2CCc2ccccc21 (stereo not drawn) [Trimipramine maleate salt] :: 0.167

Query string: Which growth is reported for this molecule? CC(=O)O[C@H]1C[C@@]2(C)[C@@H](C[C@@H](O)[C@H]3[C@@]4(C)CC[C@@H](O)[C@@H](C)[C@@H]4CC[C@@]32C)/C1=C(\CCC=C(C)C)C(=O)O [Fusidic acid sodium salt]
Result string: 0.042

Query string: Would you kindly repeat that for CCOC(=O)[N-]c1c[n+](N2CCOCC2)no1 ?
Result string: 0.245

Query string: One more molecule: CCOc1ccc2nc(S(N)(=O)=O)sc2c1 [Ethoxzolamide]
Result string: 0.207

====

# System: E. coli TESEC Mtb Alr
# ASSAY_METHOD_TEXT: growth (OD600 after 10 h); higher = more growth (less inhibition)
# RECORDED_CONDITIONS: arabinose 100000 nM; compound 0.1 mM; raw OD600 reference: median of DMSO wells 0.201, cell-free background 0.041
Where a name gives a salt, the structure may show the parent alone.
MEASURED_PARAMETER: growth
The reply should be a number, written without any unit.

1) C[C@@H](O)[C@H]1C(=O)N2C(C(=O)O)=C(S[C@@H]3CN[C@H](C(=O)N(C)C)C3)[C@H](C)[C@H]12 [Meropenem] :: 0.0523
2) O=C(CCCN1CCC(O)(c2ccc(Cl)cc2)CC1)c1ccc(F)cc1 [Haloperidol] :: 0.192
3) CN1CCN(C(c2ccccc2)c2ccc(Cl)cc2)CC1 (centres undefined) [Chlorcyclizine hydrochloride] :: 0.178

Query string: Would you mind telling me what growth value was observed for COc1cc(C)c(/C=C/C(C)=C/C=C/C(C)=C/C(=O)O)c(C)c1C [Acitretin] ?
Result string: 0.228
